Origin of the recorded values: BigSolDB 2.1

Settings: in methyl formate, 278.2 K
measure name: solubility (mole fraction)
Answers are plain numbers.

Request: Item C=C(C)[C@@H]1CC[C@]2(CO)CC[C@]3(C)[C@H](CC[C@@H]4[C@@]5(C)CC[C@H](O)C(C)(C)[C@@H]5CC[C@]43C)[C@@H]12 has what recorded solubility (mole fraction)?
Response: 0.000187

* * *

Details: in ethyl formate, 288.2 K
measure name: solubility (mole fraction)
Give bare numbers.

Request: Request the reported solubility (mole fraction) associated with C=C(C)[C@@H]1CC[C@]2(CO)CC[C@]3(C)[C@H](CC[C@@H]4[C@@]5(C)CC[C@H](O)C(C)(C)[C@@H]5CC[C@]43C)[C@@H]12
Response: 0.000316
